inhibition at 1 µM reference
# assay.system: HDAC1 enzyme (Homo sapiens, UniProt Q13547)
# Construct: transducing full length HDAC1 and HDAC6 genes into Sf-9 insect cells; GST; purchased SignalChem; host or cells: Sf-9 insect cells
# Sequence (Q13547 whole entry): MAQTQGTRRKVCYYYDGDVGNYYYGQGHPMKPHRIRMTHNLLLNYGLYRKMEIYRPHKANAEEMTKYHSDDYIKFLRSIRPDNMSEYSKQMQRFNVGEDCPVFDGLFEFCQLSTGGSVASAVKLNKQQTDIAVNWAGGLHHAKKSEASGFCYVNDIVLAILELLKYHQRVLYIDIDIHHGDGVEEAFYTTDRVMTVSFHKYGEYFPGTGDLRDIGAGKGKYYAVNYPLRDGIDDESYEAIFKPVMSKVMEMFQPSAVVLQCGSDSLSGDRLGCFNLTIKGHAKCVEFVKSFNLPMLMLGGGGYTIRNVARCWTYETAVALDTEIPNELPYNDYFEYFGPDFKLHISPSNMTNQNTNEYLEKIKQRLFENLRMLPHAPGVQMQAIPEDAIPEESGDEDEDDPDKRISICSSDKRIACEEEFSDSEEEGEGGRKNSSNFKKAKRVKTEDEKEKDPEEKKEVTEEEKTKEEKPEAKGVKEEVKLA
# method: HDAC1 enzyme inhibitory assay (HDAC-Glo I/II Assay kit)
# Type: biochemical
# particulars: wells without enzyme = 100% inhibition, read-out: HDAC1 inhibitory rate (%) (1 μM)
# Experimental: HDAC1/6 Enzyme Inhibitory Assay HDAC1 enzyme and HDAC6 enzyme each prepared by transducing full length HDAC1 and HDAC6 genes into Sf-9 insect cells and purifying by GST affinity column were purchased from SignalChem. Using these enzymes, HDAC1 and/or HDAC6 enzyme inhibitory activities of the compound of the present invention were evaluated. […] After reacting at room temperature for 20 min, luminescence level was measured using plate reader Envision (PerkinElmer). […]
Your answer is read as %, so omit the unit and give the number.

The cases that follow already have their inhibition at 1 µM on record.
[[record]]
compound = "Cn1nccc1C(=O)NCC1COCCN1C(=O)Nc1ccc(-c2noc(C(F)(F)F)n2)cc1 (stereo not shown) [Example 61]"
assay_system = "HDAC1 enzyme (Homo sapiens, UniProt Q13547)"
value = 62

[[record]]
compound = "Cc1cc(C(=O)NCC2CCCCN2C(=O)Nc2ccc(-c3noc(C(F)(F)F)n3)cc2)ccn1 (stereo not shown) [Example 57]"
assay_system = "HDAC1 enzyme (Homo sapiens, UniProt Q13547)"
value = 38

[[record]]
compound = "O=C(NCC1CCCCN1C(=O)Nc1ccc(-c2noc(C(F)(F)F)n2)cc1)c1ccccc1 (stereo not shown) [Example 2]"
assay_system = "HDAC1 enzyme (Homo sapiens, UniProt Q13547)"
value = 80


Could you now look at the following compound, please?
Request: Provide one value: measured inhibition at 1 µM of O=C(NCC1CCCCN1C(=O)Nc1ccc(-c2noc(C(F)(F)F)n2)cc1)c1cccc(F)c1 (stereo not shown) [Example 5]
Result: 35

----------
inhibition at 1 µM reference
# assay.system: HDAC6 enzyme (Homo sapiens, UniProt Q9UBN7)
# Construct: transducing full length HDAC1 and HDAC6 genes into Sf-9 insect cells; GST; purchased SignalChem; host or cells: Sf-9 insect cells
# Sequence (Q9UBN7 whole entry): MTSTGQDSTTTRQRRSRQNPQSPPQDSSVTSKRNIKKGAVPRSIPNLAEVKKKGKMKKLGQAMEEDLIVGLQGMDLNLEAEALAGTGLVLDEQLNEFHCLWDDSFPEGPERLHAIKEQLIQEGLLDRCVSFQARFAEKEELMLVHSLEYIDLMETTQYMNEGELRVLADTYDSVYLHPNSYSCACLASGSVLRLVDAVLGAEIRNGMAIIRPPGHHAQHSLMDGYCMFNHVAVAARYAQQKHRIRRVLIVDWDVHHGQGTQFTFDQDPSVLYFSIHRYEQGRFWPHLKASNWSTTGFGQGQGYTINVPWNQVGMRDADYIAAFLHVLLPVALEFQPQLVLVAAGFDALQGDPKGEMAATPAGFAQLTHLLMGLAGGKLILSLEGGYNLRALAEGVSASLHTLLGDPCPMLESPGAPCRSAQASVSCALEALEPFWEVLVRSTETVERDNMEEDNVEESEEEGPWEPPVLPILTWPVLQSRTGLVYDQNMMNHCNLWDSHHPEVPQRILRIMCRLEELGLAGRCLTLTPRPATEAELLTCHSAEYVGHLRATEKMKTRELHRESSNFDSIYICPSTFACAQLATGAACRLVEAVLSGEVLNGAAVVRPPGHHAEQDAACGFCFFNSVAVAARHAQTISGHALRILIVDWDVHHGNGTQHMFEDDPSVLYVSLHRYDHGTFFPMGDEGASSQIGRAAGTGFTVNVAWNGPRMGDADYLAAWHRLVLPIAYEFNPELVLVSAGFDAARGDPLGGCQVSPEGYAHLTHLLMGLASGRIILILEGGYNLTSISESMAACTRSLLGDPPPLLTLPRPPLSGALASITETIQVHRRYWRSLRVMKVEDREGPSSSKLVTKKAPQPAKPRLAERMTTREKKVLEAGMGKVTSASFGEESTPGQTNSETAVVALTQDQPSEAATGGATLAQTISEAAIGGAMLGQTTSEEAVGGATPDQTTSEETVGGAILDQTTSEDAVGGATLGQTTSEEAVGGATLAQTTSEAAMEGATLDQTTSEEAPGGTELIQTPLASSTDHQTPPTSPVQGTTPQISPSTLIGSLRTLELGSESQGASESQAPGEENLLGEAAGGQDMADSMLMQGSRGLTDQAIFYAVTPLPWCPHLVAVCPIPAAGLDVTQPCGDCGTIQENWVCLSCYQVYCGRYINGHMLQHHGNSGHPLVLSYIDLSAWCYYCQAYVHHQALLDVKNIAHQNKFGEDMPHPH
# method: HDAC6 enzyme inhibitory assay (HDAC-Glo I/II Assay kit)
# Assay type: biochemical
# particulars: wells without enzyme = 100% inhibition, read-out: HDAC6 inhibitory rate (%) (1 μM)
Your answer is read as %, so omit the unit and give the number.

The cases that follow already have their inhibition at 1 µM on record.
[[record]]
compound = "O=C(NCC1CCCCN1C(=O)Nc1ccc(-c2noc(C(F)(F)F)n2)cc1)c1csc(C(F)(F)F)n1 (stereo not shown)"
value = 1

[[record]]
compound = "NC(=O)c1ccc(C(=O)NCC2CCCCN2C(=O)Nc2ccc(-c3noc(C(F)(F)F)n3)cc2)cc1 (stereo not shown)"
value = 2

[[record]]
compound = "O=C(NCC1CCCCN1C(=O)Nc1ccc(-c2noc(C(F)(F)F)n2)cc1)c1ccc2nccn2c1 (stereo not shown)"
value = 3

[[record]]
compound = "O=C(NCC1CCCCN1C(=O)Nc1ccc(-c2noc(C(F)(F)F)n2)cc1)c1cccs1 (stereo not shown)"
value = 7

[[record]]
compound = "Cn1nccc1C(=O)NCC1CCCCN1C(=O)Nc1ccc(-c2noc(C(F)(F)F)n2)cc1 (stereo not shown)"
value = 7

[[record]]
compound = "CN(C)c1cccc(C(=O)NCC2CCCCN2C(=O)Nc2ccc(-c3noc(C(F)(F)F)n3)cc2)c1 (stereo not shown)"
value = 2

[[record]]
compound = "O=C(NCC1CCCCN1C(=O)Nc1ccc(-c2noc(C(F)(F)F)n2)cc1)c1cccc(Cl)c1 (stereo not shown)"
value = 2

[[record]]
compound = "Cn1nc(C(=O)NCC2CCCCN2C(=O)Nc2ccc(-c3noc(C(F)(F)F)n3)cc2)c2ccccc21 (stereo not shown)"
value = 3

[[record]]
compound = "O=C(NCC1CCCCN1C(=O)Nc1ccc(-c2noc(C(F)(F)F)n2)cc1)c1ccccc1F (stereo not shown)"
value = 5

[[record]]
compound = "O=C(NCC1CCCCN1C(=O)Nc1ccc(-c2noc(C(F)(F)F)n2)cc1)c1ccccc1Cl (stereo not shown)"
value = 3


Request: Report its inhibition at 1 µM with HDAC6 enzyme (Homo sapiens, UniProt Q9UBN7) as the test system: O=C(NCC1CCCCN1C(=O)Nc1ccc(-c2noc(C(F)(F)F)n2)cc1)c1cccc(-c2ccccc2)c1 (stereo not shown)
Result: 5

Request: Report its inhibition at 1 µM with HDAC6 enzyme (Homo sapiens, UniProt Q9UBN7) as the test system: O=C(NCC1CCCCN1C(=O)Nc1ccc(-c2noc(C(F)(F)F)n2)cc1)Nc1ccccc1 (stereo not shown)
Result: 6

Measured values drawn from patent US10406146B2 for this set.
